Value source: PubChem BioAssay AID1159580

protocolDescription: chemical genetic growth profiling, strain panel (AID 1159580);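 note: tested at 20 µM; growth read once vehicle control cultures reached saturation at 30 °C; 1 = growth at the plate median or of vehicle wells; lower values mean less growth of the strain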
conditions: S. cerevisiae deletion strains, growth OD, locus YGL086W, strain mad1, hits give low values
Among all 5,500 compounds or so, about 2,000 (36%) were called active. About 18% were inconclusive and are not listed. The list shows a part of the results.
Record form. Attribute: normalized growth. Fill in for each entry.
Answers are plain numbers.

Some compounds with recorded normalized growth:
Query: // lookup normalized growth for CN1C[C@H](C(=O)N[C@]2(C)O[C@@]3(O)[C@@H]4CCCN4C(=O)[C@H](Cc4ccccc4)N3C2=O)C[C@@H]2c3cccc4[nH]cc(c34)C[C@H]21
Response: 0.985

Query: // lookup normalized growth for CC(=O)OC(C)C[N+](C)(C)C (centres undefined)
Response: 1

Query: // lookup normalized growth for COC(=O)c1c(C)cc(OC)cc1O
Response: 0.988

Query: // lookup normalized growth for CC(C)c1c(O)ccc2c1CCC1[C@@](C)(CO)CCC[C@]21C (some centres undefined)
Response: 0.898

Hi team, please reply with normalized growth for each item in this list.
1. CCCC(C)(COC(N)=O)COC(=O)NC(C)C (centres undefined)
2. NC(=O)CN1CCCC1=O

Response:
1: 0.98; 2: 1

Hi team, please reply with normalized growth for each item in this list.
1. OCC(O)C(O)C(O)C(O)C(O)CO (centres undefined)
2. COc1c(C(C)C)oc2cc3oc(=O)ccc3cc12
3. Cc1ccccc1OCC(O)CO (centres undefined)
4. COc1ccc2c(c1C(C)C)CCC1C(C)(C)C(=O)CCC21C (centres undefined)

Response:
[1.01, 0.883, 1.01, 0.961]

Hi team, please reply with normalized growth for each item in this list.
1. NC(N)=NC(=O)c1nc(Cl)c(N2CCCCCC2)nc1N
2. COC(=O)[C@@]1(C)CCC[C@]2(C)c3ccc(O)c(C(C)C)c3CCC12 (some centres undefined)
3. NC(N)=NC(=O)c1nc(Cl)c(N)nc1N
4. CC(C)c1c(O)ccc2c1CCC1C(C)(C)CCC[C@]21C (some centres undefined)
5. CN(C)c1nc(N)c(C(=O)N=C(N)N)nc1Cl

Response:
1: 0.998; 2: 0.729; 3: 1.01; 4: 0.135; 5: 1.02
